assay_target: UniProt:P07333
Sequence (P07333 20-972): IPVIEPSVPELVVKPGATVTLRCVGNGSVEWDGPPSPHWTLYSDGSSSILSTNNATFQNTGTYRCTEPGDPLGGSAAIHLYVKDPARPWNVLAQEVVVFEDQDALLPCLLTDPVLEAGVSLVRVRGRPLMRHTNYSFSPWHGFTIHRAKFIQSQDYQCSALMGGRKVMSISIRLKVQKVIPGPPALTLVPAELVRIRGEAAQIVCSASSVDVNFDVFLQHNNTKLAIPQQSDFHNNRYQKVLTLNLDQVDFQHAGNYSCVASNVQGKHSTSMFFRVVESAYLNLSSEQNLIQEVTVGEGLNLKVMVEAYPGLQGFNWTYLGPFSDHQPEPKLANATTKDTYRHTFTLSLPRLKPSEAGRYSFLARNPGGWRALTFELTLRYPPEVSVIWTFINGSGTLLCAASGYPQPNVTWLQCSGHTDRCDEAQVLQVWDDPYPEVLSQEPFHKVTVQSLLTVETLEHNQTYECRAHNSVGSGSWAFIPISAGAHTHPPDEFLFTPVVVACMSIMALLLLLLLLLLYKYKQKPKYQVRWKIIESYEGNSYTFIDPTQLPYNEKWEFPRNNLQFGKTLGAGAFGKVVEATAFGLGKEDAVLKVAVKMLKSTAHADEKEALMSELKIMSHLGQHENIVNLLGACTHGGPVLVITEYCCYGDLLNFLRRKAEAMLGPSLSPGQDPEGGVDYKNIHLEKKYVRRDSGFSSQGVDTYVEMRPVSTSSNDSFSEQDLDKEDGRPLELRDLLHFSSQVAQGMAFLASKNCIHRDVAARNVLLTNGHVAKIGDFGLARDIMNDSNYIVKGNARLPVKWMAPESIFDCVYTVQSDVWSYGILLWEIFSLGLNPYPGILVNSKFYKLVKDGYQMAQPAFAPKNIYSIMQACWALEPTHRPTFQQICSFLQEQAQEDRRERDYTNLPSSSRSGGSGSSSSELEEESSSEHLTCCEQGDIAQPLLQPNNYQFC
experimental_protocol: Inhibition of CSF1R kinase activity (HTRF KinEASE-TK)
condition: biochemical, HTRF KinEASE-TK
endpoint_label: IC50

Examples with answers:
>>> measurement("Cc1ncc(C(=O)Nc2cc(C(=O)Nc3ccnc(C(F)F)c3)c(F)cc2C)s1")
"> 1 µM"
>>> measurement("CNc1ncc(C(=O)Nc2cc(C(=O)Nc3ccc(OC4CC4)cn3)c(F)cc2C)s1")
"> 1 µM"
>>> measurement("Cc1ncc(C(=O)Nc2cc(C(=O)Nc3cncc(C(F)F)c3)c(F)cc2C)s1")
"> 1 µM"
>>> measurement("Cc1cc(F)c(C(=O)Nc2ccc(COCC3CC3)cn2)cc1NC(=O)c1cnc(N)s1")
"> 1 µM"

compound "Cc1ncc(C(=O)Nc2cc(C(=O)Nc3ccc(CC(F)F)cn3)c(F)cc2C)s1" , IC50 observed: > 1 µM
